Values compiled from patent US8088805B2.

# Test system: HCT116 cells
# EXPERIMENTAL PROTOCOL: MTT assay
# Type: cell-based
# DETAILS: Homo sapiens, HCT-116, 72 hours
PROPERTY LABEL: IC50

ENTRY SMILES | RECORDED MEASUREMENT
Nc1ccccc1NC(=O)c1ccc(N2CC[C@@H](Nc3ccccc3)C2)cc1 | 1000 to 5000 nM
Nc1ccccc1NC(=O)c1ccc(N2CC[C@H](Oc3cccnc3)C2)cc1 | 100 to 1000 nM
Nc1ccccc1NC(=O)c1ccc(CNc2nc3ccc(O)cc3s2)cc1 | 100 to 1000 nM
